# Species on record: Rattus norvegicus
# experimental protocol: Open TG-GATES - Regimen: Daily Repeat
# Assay type: toxicity, organism-based, Sprague-Dawley
# Set-up: regimen Daily Repeat, gender Male, age 6 weeks
# condition: in vivo, po, 0 mg/kg, […], tissue Blood, route gavage, dose level Control, time 7 day
endpoint name: Ret (%)
Answer with a number only, understood to be in %.

Q: Reported Ret for O=C(OC[C@H]1O[C@@H](OC(=O)c2cc(O)c(O)c(OC(=O)c3cc(O)c(O)c(O)c3)c2)[C@H](OC(=O)c2cc(O)c(O)c(OC(=O)c3cc(O)c(O)c(O)c3)c2)[C@@H](OC(=O)c2cc(O)c(O)c(OC(=O)c3cc(O)c(O)c(O)c3)c2)[C@@H]1OC(=O)c1cc(O)c(O)c(OC(=O)c2cc(O)c(O)c(O)c2)c1)c1cc(O)c(O)c(OC(=O)c2cc(O)c(O)c(O)c2)c1 : what is it?
Ans: 6.8

Q: Tell me the measured Ret of COC(=O)C1=C(C)NC(C)=C(C(=O)OC)C1c1ccccc1[N+](=O)[O-] , please.
Ans: 5.7

Q: # query: Ret of entry Nc1c2c(nc3ccccc13)CCCC2
Ans: 5.5

Q: Please report the recorded Ret for CN(C)CCC(c1ccc(Cl)cc1)c1ccccn1 (stereo not drawn) .
Ans: 5.9

Q: Look up Ret for this compound: CN1C(=O)CCS(=O)(=O)C1c1ccc(Cl)cc1 (stereo not drawn)
Ans: 6.5

Q: Record request: Ret value, item CCOc1ccc(NC(C)=O)cc1
Ans: 5.4

Q: Need Ret of CCCc1cc(=O)[nH]c(=S)[nH]1 , thanks.
Ans: 6.7

Q: Entry CC(C)NNC(=O)c1ccncc1 : reported Ret = ?
Ans: 6.4

Q: Record request: Ret value, item Cc1nnc2n1-c1ccc(Cl)cc1C(c1ccccc1Cl)=NC2
Ans: 5.6

Q: # get_value(readout='Ret', item= CN/C(=N/CCSCc1nc[nH]c1C)NC#N )
Ans: 5.8

Q: # get_value(readout='Ret', item= CNC(=C[N+](=O)[O-])NCCSCc1ccc(CN(C)C)o1 )
Ans: 4.9

Q: Give the measured Ret of NC1=NC(=O)C(c2ccccc2)O1 (stereo not drawn) .
Ans: 6.4

Q: What value of measured Ret is listed for Brc1ccccc1 ?
Ans: 5.8

---

# Species on record: Rattus norvegicus
# experimental protocol: Open TG-GATES - Regimen: Daily Repeat
# Format: toxicity, organism-based, Sprague-Dawley
# Design: regimen Daily Repeat, gender Male, age 6 weeks
# condition: in vivo, po, 0 mg/kg, […], tissue Blood, route gavage, dose level Control, time 28 day
We label by threshold. Values of WBC strictly beneath 100 x10_2/uL are TRUE. Values of 100 x10_2/uL and up are FALSE.

Q: Say whether its WBC is strictly beneath 100 x10_2/uL. Entry: Nc1c2c(nc3ccccc13)CCCC2 [TACRINE]
Ans: FALSE

Q: # strict comparison: is reported WBC < 100 x10_2/uL? input = Cc1nnc2n1-c1ccc(Cl)cc1C(c1ccccc1Cl)=NC2 [TRIAZOLAM]
Ans: TRUE

Q: A record lists CN1C(=O)CCS(=O)(=O)C1c1ccc(Cl)cc1 (stereo not drawn) [CHLORMEZANONE] . Is its WBC below 100 x10_2/uL?
Ans: TRUE

Q: Lab note: confirm whether the reported WBC for this compound is below 100 x10_2/uL, equality not counting. compound: NC1=NC(=O)C(c2ccccc2)O1 (stereo not drawn) [PEMOLINE]
Ans: FALSE

Q: Quick check: does CN(C)CCC(c1ccc(Cl)cc1)c1ccccn1 (stereo not drawn) [CHLORPHENIRAMINE] have WBC under 100 x10_2/uL?
Ans: TRUE

Q: Just wondering, is WBC of COC(=O)C1=C(C)NC(C)=C(C(=O)OC)C1c1ccccc1[N+](=O)[O-] [NIFEDIPINE] below 100 x10_2/uL?
Ans: TRUE

Q: Given CCCc1cc(=O)[nH]c(=S)[nH]1 [PROPYLTHIOURACIL] , is recorded WBC strictly lower than 100 x10_2/uL?
Ans: TRUE

Q: Quick check: WBC of CCOc1ccc(NC(C)=O)cc1 [PHENACETIN] under 100 x10_2/uL?
Ans: FALSE

Q: Input CC(C)NNC(=O)c1ccncc1 [IPRONIAZID] ; condition: WBC strictly below 100 x10_2/uL. Does it hold?
Ans: FALSE

Q: Just wondering, is WBC of CNC(=C[N+](=O)[O-])NCCSCc1ccc(CN(C)C)o1 [RANITIDINE] below 100 x10_2/uL?
Ans: TRUE

Q: Would you kindly verify if WBC of CN/C(=N/CCSCc1nc[nH]c1C)NC#N [CIMETIDINE] is strictly less than 100 x10_2/uL?
Ans: FALSE

Q: # strict comparison: is reported WBC < 100 x10_2/uL? input = Brc1ccccc1 [BROMOBENZENE]
Ans: FALSE

Q: Regarding O=C(OC[C@H]1O[C@@H](OC(=O)c2cc(O)c(O)c(OC(=O)c3cc(O)c(O)c(O)c3)c2)[C@H](OC(=O)c2cc(O)c(O)c(OC(=O)c3cc(O)c(O)c(O)c3)c2)[C@@H](OC(=O)c2cc(O)c(O)c(OC(=O)c3cc(O)c(O)c(O)c3)c2)[C@@H]1OC(=O)c1cc(O)c(O)c(OC(=O)c2cc(O)c(O)c(O)c2)c1)c1cc(O)c(O)c(OC(=O)c2cc(O)c(O)c(O)c2)c1 [TANNIC ACID] , kindly confirm whether its WBC is beneath 100 x10_2/uL.
Ans: FALSE

---

# Species on record: Rattus norvegicus
# experimental protocol: Open TG-GATES - Regimen: Single
# Assay type: toxicity, organism-based, Sprague-Dawley
# Design: regimen Single, gender Male, age 6 weeks
# condition: in vivo, po, 0 mg/kg, 6 h, tissue Plasma, route gavage, dose level Control
endpoint name: GLC (mg/dL)
Respond with the bare value in mg/dL.

Q: Need GLC, item NC1=NC(=O)C(c2ccccc2)O1 (centres undefined)
Ans: 173.8

Q: Please report the recorded GLC for CCOc1ccc(NC(C)=O)cc1 .
Ans: 171.6

Q: Suppose we examine the compound CN1C(=O)CCS(=O)(=O)C1c1ccc(Cl)cc1 (centres undefined) ; what GLC value has been reported?
Ans: 180.2

Q: # GLC lookup, item CCCc1cc(=O)[nH]c(=S)[nH]1
Ans: 182

Q: Can you share its GLC? I mean this compound: Brc1ccccc1
Ans: 184.2

Q: For the compound shown here, CNC(=C[N+](=O)[O-])NCCSCc1ccc(CN(C)C)o1 , give the reported GLC.
Ans: 195.2

Q: Using the record for CC(C)NNC(=O)c1ccncc1 , report its GLC.
Ans: 180

Q: Item under review: Cc1nnc2n1-c1ccc(Cl)cc1C(c1ccccc1Cl)=NC2 . Reported GLC?
Ans: 177.8

Q: Requested read-out: GLC. Entry: CN/C(=N/CCSCc1nc[nH]c1C)NC#N
Ans: 195.4

Q: What does the data say about its GLC? Entry: Nc1c2c(nc3ccccc13)CCCC2
Ans: 176.6

Q: Entry O=C(OC[C@H]1O[C@@H](OC(=O)c2cc(O)c(O)c(OC(=O)c3cc(O)c(O)c(O)c3)c2)[C@H](OC(=O)c2cc(O)c(O)c(OC(=O)c3cc(O)c(O)c(O)c3)c2)[C@@H](OC(=O)c2cc(O)c(O)c(OC(=O)c3cc(O)c(O)c(O)c3)c2)[C@@H]1OC(=O)c1cc(O)c(O)c(OC(=O)c2cc(O)c(O)c(O)c2)c1)c1cc(O)c(O)c(OC(=O)c2cc(O)c(O)c(O)c2)c1 has what GLC?
Ans: 188

Q: Please look up its GLC: COC(=O)C1=C(C)NC(C)=C(C(=O)OC)C1c1ccccc1[N+](=O)[O-]
Ans: 177.8

Q: Could you tell me which GLC is on file for CS(=O)(=O)O.Cc1ccc(NC(=O)c2ccc(CN3CCN(C)CC3)cc2)cc1Nc1nccc(-c2cccnc2)n1 [IMATINIB MESYLATE] ?
Ans: 175.8

Q: What value of GLC has been recorded for this entry: CN(C)CCC(c1ccc(Cl)cc1)c1ccccn1 (centres undefined)
Ans: 190.6

---

For each of the compounds below, state its A/G.
# Species: Rattus norvegicus
# experimental protocol: Open TG-GATES - Regimen: Single
# Type: toxicity, organism-based, Sprague-Dawley
# Set-up: regimen Single, gender Male, age 6 weeks
# condition: in vivo, po, 300 mg/kg, 6 h, tissue Plasma, route gavage, dose level Middle
# print the numeric value only

Q: Give the measured A/G of CN/C(=N/CCSCc1nc[nH]c1C)NC#N .
Ans: 1.7

Q: Please look up its A/G: Cc1nnc2n1-c1ccc(Cl)cc1C(c1ccccc1Cl)=NC2
Ans: 0.9

Q: So what does the record say about A/G for CNC(=C[N+](=O)[O-])NCCSCc1ccc(CN(C)C)o1 ?
Ans: 1.6

Q: Please look up its A/G: O=C(OC[C@H]1O[C@@H](OC(=O)c2cc(O)c(O)c(OC(=O)c3cc(O)c(O)c(O)c3)c2)[C@H](OC(=O)c2cc(O)c(O)c(OC(=O)c3cc(O)c(O)c(O)c3)c2)[C@@H](OC(=O)c2cc(O)c(O)c(OC(=O)c3cc(O)c(O)c(O)c3)c2)[C@@H]1OC(=O)c1cc(O)c(O)c(OC(=O)c2cc(O)c(O)c(O)c2)c1)c1cc(O)c(O)c(OC(=O)c2cc(O)c(O)c(O)c2)c1
Ans: 1.9
